- systemName: rat TRPV1 (Rattus norvegicus, UniProt O35433)
- Construct: expressed in transfected cells; host or cells: HEK293
- Sequence (O35433 whole entry): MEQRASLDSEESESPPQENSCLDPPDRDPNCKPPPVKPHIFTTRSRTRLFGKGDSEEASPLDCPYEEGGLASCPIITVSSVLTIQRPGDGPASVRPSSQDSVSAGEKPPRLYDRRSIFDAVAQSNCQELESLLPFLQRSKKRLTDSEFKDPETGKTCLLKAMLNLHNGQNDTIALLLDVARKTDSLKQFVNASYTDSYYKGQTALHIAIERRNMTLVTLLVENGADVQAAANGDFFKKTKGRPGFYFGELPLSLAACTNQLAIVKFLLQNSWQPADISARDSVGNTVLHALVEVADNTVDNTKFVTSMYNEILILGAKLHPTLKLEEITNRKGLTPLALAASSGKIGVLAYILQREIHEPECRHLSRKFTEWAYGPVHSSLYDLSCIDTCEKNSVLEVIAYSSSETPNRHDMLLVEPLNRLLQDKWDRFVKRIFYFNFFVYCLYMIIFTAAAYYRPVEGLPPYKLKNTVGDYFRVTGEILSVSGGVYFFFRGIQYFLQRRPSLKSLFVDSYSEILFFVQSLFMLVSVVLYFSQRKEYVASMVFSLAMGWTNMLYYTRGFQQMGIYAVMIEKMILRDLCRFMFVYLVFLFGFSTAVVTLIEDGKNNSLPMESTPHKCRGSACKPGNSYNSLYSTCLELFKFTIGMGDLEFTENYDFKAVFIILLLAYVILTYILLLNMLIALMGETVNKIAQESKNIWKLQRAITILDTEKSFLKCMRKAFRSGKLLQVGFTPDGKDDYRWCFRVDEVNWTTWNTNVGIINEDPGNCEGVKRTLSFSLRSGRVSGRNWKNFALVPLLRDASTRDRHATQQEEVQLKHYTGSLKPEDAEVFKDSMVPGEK
- experimentSummary: Assay for inhibitory activity against VR1 patch clamp activity (capsaicin current, inside-out patch)
- Format: cell-based
- experimentalSetup: 1 μM compound with 10 μM capsaicin; rat TRPV1-transfected HEK293, inside-out patch; relative to capsaicin current before compound
Param threshold (50%) applies to inhibition at 1 µM; output condition met when value >= threshold, condition not met when value < threshold.

Check if inhibition at 1 µM >= 50% (inclusive). Item: CC(C)(C)c1ccc2nc(-c3ccc(-c4ncccc4C(F)(F)F)cc3)[nH]c2c1 [Compound 30]
condition met

// inclusive: inhibition at 1 µM at least 50%? input: COc1ccc2nc(-c3ccc(Oc4ccccc4)cc3)[nH]c2c1 [Compound 194]
condition not met

Quick check, inhibition at 1 µM >= 50%? FC(F)(F)c1cc(C(F)(F)F)c2nc(-c3ccc(-c4ncccc4C(F)(F)F)cc3)[nH]c2c1 [Compound 33]
condition not met

Tell me whether inhibition at 1 µM is at least 50% here: COc1ccc2nc(-c3ccc(-c4ncccc4Cl)cc3)[nH]c2c1 [Compound 5]
condition not met

Can FC(F)(F)c1cc(Cl)c2nc(-c3ccc(-c4ncccc4C(F)(F)F)cn3)[nH]c2c1 [Compound 161] be said to have inhibition at 1 µM at or above 50%?
condition met

Reported inhibition at 1 µM reaches at least 50% for FC(F)(F)c1ccc2nc(-c3ccc(Oc4ccccc4)cc3)[nH]c2c1 [Compound 189] ?
condition met

Evaluate FC(F)(F)c1cnc2nc(-c3ccc(-c4ncccc4Cl)cc3)[nH]c2c1 [Compound 8] : inhibition at 1 µM at minimum 50%?
condition not met

Record CC(C)(C)c1ccc2nc(-c3ccc(-c4ncc(Cl)cc4Cl)cc3F)[nH]c2c1 [Compound 70] ; criterion: inhibition at 1 µM no lower than 50%. Met?
condition not met

# check: inhibition at 1 µM of FC(F)(F)c1cc(C(F)(F)F)c2nc(-c3ccc(-c4ccccn4)c4ccccc34)[nH]c2c1 [Compound 115] is greater than or equal to 50%
condition met

Please check the record FC(F)(F)c1cccnc1-c1ccc(-c2nc3ccc(Cl)cc3[nH]2)cc1 [Compound 32] and state if its inhibition at 1 µM is at or above 50%.
condition met

Quick check: does c1cnc2[nH]c(-c3ccc(-n4cccc4)cc3)nc2c1 [Compound 179] have inhibition at 1 µM greater than or equal to 50%?
condition met

Could you verify whether the entry CC(C)(C)c1ccc2nc(-c3ccc(-n4cccc4)cc3)[nH]c2c1 [Compound 181] shows inhibition at 1 µM of no less than 50%?
condition not met

Could you please find out whether CC(C)(C)c1ccc2nc(-c3ccc(-c4ncc(C(F)(F)F)cc4Cl)c(Cl)c3)[nH]c2c1 [Compound 121] has inhibition at 1 µM that meets 50% or exceeds it?
condition met

Reported inhibition at 1 µM at or above 50%? CC(C)(C)c1ccc2nc(-c3ccc(-c4ccccn4)c(Cl)c3)[nH]c2c1 [Compound 126]
condition met

Is the recorded value of inhibition at 1 µM equal to or greater than 50% for this compound? CC(C)(C)c1ccc2nc(-c3ccc(-c4ncccc4Cl)cc3F)[nH]c2c1 [Compound 67]
condition met

Hello, I need to know if FC(F)(F)c1ccc2nc(-c3ccc(-c4ccccc4)cc3)[nH]c2c1 [Compound 183] has measured inhibition at 1 µM not below 50%. Thanks!
condition not met
